# credit: patent US20240247080A1

SYSTEM: T1, human neuropeptide Y2 (NPY2) receptor (human, UniProt P49146 1-381)
T1 sequence (looked up): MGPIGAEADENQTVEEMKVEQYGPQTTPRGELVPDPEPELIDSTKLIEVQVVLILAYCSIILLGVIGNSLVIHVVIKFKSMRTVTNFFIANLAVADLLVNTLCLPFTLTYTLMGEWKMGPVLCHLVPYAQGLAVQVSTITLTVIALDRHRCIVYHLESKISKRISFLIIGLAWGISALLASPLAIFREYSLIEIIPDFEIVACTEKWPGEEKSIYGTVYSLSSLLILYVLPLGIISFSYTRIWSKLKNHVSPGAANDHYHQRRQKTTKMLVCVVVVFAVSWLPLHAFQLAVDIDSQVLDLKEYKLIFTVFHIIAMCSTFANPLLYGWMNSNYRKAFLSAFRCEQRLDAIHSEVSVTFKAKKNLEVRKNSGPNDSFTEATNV
ASSAY_COMMENT: cell-based or functional assay
Starred links: 1 amine or outer side, 2 acyl side, 3 side chain; linkers in the order of their positions; H or OH if unused. Non-standard residues stand in square brackets, D forms with d. Groups on a side chain read outwards from the residue. No end group written: not given here. *: point of attachment. C20 diacid = O=C(O)CCCCCCCCCCCCCCCCCCC(=O)*; C18 diacid = O=C(O)CCCCCCCCCCCCCCCCC(=O)*; γGlu = O=C(O)[C@H](CCC(=O)[*:2])N[*:1]; εLys = N[C@@H](CCCCN[*:1])C(=O)[*:2]; AEEA = NCCOCCOCC(=O)O; Aib = CC(C)(N)C(=O)O
Define the label as Satisfied when EC50, CreLuc assay, 100% hP is strictly less than 0.04 µM and as Not satisfied in all remaining cases.

[
  {
    "BINDER": "YXDGTFTSDYSIXLEKQAQXAFVEWLIKGGPSSGASLRHYYNWLTRQRY (Aib at 2, 13, 20; K28 side chain: C20DA-gGlu-gGlu-gGlu-gGlu-gGlu-gGlu-eLys; C-terminal NH2) [Compound 87]",
    "CLASS": "Not satisfied"
  },
  {
    "BINDER": "YXEGTFTSDYSIXLEKQAQXAFVEWLIKGGPSSAVSLRHYYNWLTRQRY (Aib at 2, 13, 20; K28 side chain: C20DA-gGlu-gGlu-gGlu-gGlu-gGlu-gGlu-eLys; C-terminal NH2) [Compound 33]",
    "CLASS": "Satisfied"
  },
  {
    "BINDER": "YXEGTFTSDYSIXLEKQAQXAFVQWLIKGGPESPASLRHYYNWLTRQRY (Aib at 2, 13, 20; K28 side chain: C20DA-gGlu-gGlu-gGlu-gGlu-gGlu; C-terminal NH2) [Compound 11]",
    "CLASS": "Not satisfied"
  },
  {
    "BINDER": "YXEGTFTSDYSIXLEKQAQXAFVEWLIKGGPSSGASLRHYXNRXTRQRY (Aib at 2, 13, 20, 41, 44; K28 side chain: C20DA-gGlu-gGlu-gGlu-gGlu-gGlu-gGlu-eLys; C-terminal NH2) [Compound 18]",
    "CLASS": "Not satisfied"
  },
  {
    "BINDER": "YXEGTFTSDYSIXLEEEAQXAFVEWLIKGGPSSGASLRHYYNWLTRQRY (Aib at 2, 13, 20; K28 side chain: C20DA-gGlu-gGlu-gGlu-gGlu-gGlu-gGlu-eLys; C-terminal NH2) [Compound 66]",
    "CLASS": "Not satisfied"
  },
  {
    "BINDER": "Y[Aib]EGTFTSDYSI[Aib]LEKQAE[Aib]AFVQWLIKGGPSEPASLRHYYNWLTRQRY-NH2 (not fully specified (residue 28); also: TFA salt) [Compound 54]",
    "CLASS": "Not satisfied"
  },
  {
    "BINDER": "Y[Aib]EGTFTSDYSI[Aib]LEKQAQ[Aib]AFVQWLIK([εLys-γGlu-γGlu-γGlu-γGlu-γGlu-C20 diacid])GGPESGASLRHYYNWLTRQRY-NH2 (also: TFA salt) [Compound 61]",
    "CLASS": "Satisfied"
  },
  {
    "BINDER": "YXEGTFTSDYSIXLEKQAQXAFVEWLIKGGPSSGVSXRHYYNWLTRQRY (Aib at 2, 13, 20, 37; K28 side chain: C20DA-gGlu-gGlu-gGlu-gGlu-gGlu-gGlu-eLys; C-terminal NH2) [Compound 38]",
    "CLASS": "Satisfied"
  },
  {
    "BINDER": "YXEGTFTSDYSIXLEKQAQXAFVEWLIKGGPSSGADLRHYLNWLTRQRY (Aib at 2, 13, 20; K28 side chain: C20DA-gGlu-gGlu-gGlu-gGlu-gGlu-gGlu-eLys; C-terminal NH2) [Compound 72]",
    "CLASS": "Not satisfied"
  },
  {
    "BINDER": "Y[Aib]EGTFTSDYSI[Aib]LEKQAQ[Aib]AFVQWLIK([εLys-γGlu-γGlu-γGlu-γGlu-γGlu-C18 diacid])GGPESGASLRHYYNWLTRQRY-NH2 (also: TFA salt) [Compound 60]",
    "CLASS": "Satisfied"
  },
  {
    "BINDER": "YXEGTFTSDYSIXLEKQAQXAFVEWLIKGGPSSGQSLRHYYNWLTRQRY (Aib at 2, 13, 20; K28 side chain: C20DA-gGlu-gGlu-gGlu-gGlu-gGlu-gGlu-eLys; C-terminal NH2) [Compound 84]",
    "CLASS": "Satisfied"
  },
  {
    "BINDER": "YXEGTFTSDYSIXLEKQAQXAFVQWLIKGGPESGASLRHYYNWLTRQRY (Aib at 2, 13, 20; K28 side chain: C20DA-gGlu-gGlu-gGlu-gGlu-gGlu; C-terminal NH2) [Compound 29]",
    "CLASS": "Not satisfied"
  },
  {
    "BINDER": "Y[Aib]EGTFTSDYSI[Aib]LEKQAQ[Aib]AFVQWLIK([AEEA-AEEA-γGlu-γGlu-γGlu-γGlu-C18 diacid])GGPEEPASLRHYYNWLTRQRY-NH2 (also: TFA salt) [Compound 57]",
    "CLASS": "Satisfied"
  },
  {
    "BINDER": "YXEGTFTSDYSIXLEKQAQXAFVQWLIKGGQRSYASLRHYYNWLTRQRY (Aib at 2, 13, 20; K28 side chain: C20DA-gGlu-gGlu-gGlu-gGlu-gGlu-gGlu-eLys; C-terminal NH2) [Compound 3]",
    "CLASS": "Satisfied"
  },
  {
    "BINDER": "Y[Aib]EGTFTSDYSI[Aib]LEEQAQ[Aib]AFVQWLIK([εLys-γGlu-γGlu-γGlu-γGlu-γGlu-C20 diacid])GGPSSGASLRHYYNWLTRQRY-NH2 (also: TFA salt) [Compound 34]",
    "CLASS": "Not satisfied"
  },
  {
    "BINDER": "Y[Aib]EGTFTSDYSI[Aib]LEKQAQ[Aib]AFVQWLIKGGPESGASLRHYYNWLTRQRY-NH2 (not fully specified (residue 28); also: TFA salt) [Compound 55]",
    "CLASS": "Not satisfied"
  },
  {
    "BINDER": "YXEGTFTSDYSIXLEKQAQXAFVEWLIKGGPSSGASXRHYXNRXTRQRY (Aib at 2, 13, 20, 37, 41, 44; K28 side chain: C20DA-gGlu-gGlu-gGlu-gGlu-gGlu-gGlu-eLys; C-terminal NH2) [Compound 4]",
    "CLASS": "Not satisfied"
  },
  {
    "BINDER": "YXEGTFTSDYSIXLAAAAQXAFVEWLIKGGPSSGASLRHYYNWLTRQRY (Aib at 2, 13, 20; K28 side chain: C20DA-gGlu-gGlu-gGlu-gGlu-gGlu-gGlu-eLys; C-terminal NH2) [Compound 20]",
    "CLASS": "Not satisfied"
  },
  {
    "BINDER": "YXEGTFTSDYSIXLEKQAQXAFVEWLIKGGPSSGIELRHFLNHLTRQRY (Aib at 2, 13, 20; K28 side chain: C20DA-gGlu-gGlu-gGlu-gGlu-gGlu-gGlu-eLys; C-terminal NH2) [Compound 2]",
    "CLASS": "Not satisfied"
  },
  {
    "BINDER": "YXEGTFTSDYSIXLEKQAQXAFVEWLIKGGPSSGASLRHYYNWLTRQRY (Aib at 2, 13, 20; NMeQ 47; K28 side chain: C20DA-gGlu-gGlu-gGlu-gGlu-gGlu-gGlu-eLys; C-terminal NH2) [Compound 85]",
    "CLASS": "Satisfied"
  }
]
